method summary: Pharmacokinetic study of berberine after single oral dose
Assay type: in vivo, Wistar rats
run conditions: male, Wistar, 320 mg/kg; berberine in rat plasma, single oral dose; read-out: t½ (converted)
Structures can show the parent of a compound that is named as a salt.
recorded endpoint: half-life (h)
Hi! Could you send only the number? It should be in h, unit omitted.

Ask: Suppose we examine the molecule COc1ccc2cc3[n+](cc2c1OC)CCc1cc2c(cc1-3)OCO2 [Control (Unformulated), berberine HCl] ; what half-life value has been reported?
Reply: 7.32

----------
method summary: in vivo
run conditions: male, Wistar, rat, plasma, po, 60 mg/kg
recorded endpoint: AUC(0-t) (ng·h/mL)
I only need the number, in ng·h/mL, no unit after it.

Ask: Value lookup for AUC(0-t); key = C[C@H]1[C@H](C)CC[C@]2(C(=O)O)CC[C@]3(C)C(=CC[C@@H]4[C@@]5(C)CC[C@H](O)C(C)(C)[C@@H]5CC[C@]43C)[C@H]12 [Control, ursolic acid]
Reply: 877

----------
method summary: Pharmacokinetic study of berberine after single oral dose
Format: in vivo, Wistar rats
run conditions: male, Wistar, 320 mg/kg; berberine in rat plasma, single oral dose
Counter-ions that a name gives are not always drawn.
recorded endpoint: Tmax (min)
I only need the number, in min, no unit after it.

Ask: Entry COc1ccc2cc3[n+](cc2c1OC)CCc1cc2c(cc1-3)OCO2 [Control (Unformulated), berberine HCl] : reported Tmax = ?
Reply: 15

----------
method summary: Pharmacokinetic study of berberine after single oral dose
Assay type: in vivo, Wistar rats
run conditions: male, Wistar; berberine in rat plasma, single oral dose (600 mg/kg encapsulated; 320 mg/kg berberine HCl)
Counter-ions that a name gives are not always drawn.
recorded endpoint: Cmax (ng/mL)
Return type: number; implicit unit ng/mL.

Ask: Find the recorded Cmax belonging to COc1ccc2cc3[n+](cc2c1OC)CCc1cc2c(cc1-3)OCO2 [Control (Unformulated), berberine HCl] and report it.
Reply: 15.5

----------
method summary: in vivo
run conditions: male, Wistar, rat, plasma, po, 60 mg/kg
recorded endpoint: half-life (h)
Please respond with the number in h and leave the unit unwritten.

Ask: // half-life lookup, key: C[C@H]1[C@H](C)CC[C@]2(C(=O)O)CC[C@]3(C)C(=CC[C@@H]4[C@@]5(C)CC[C@H](O)C(C)(C)[C@@H]5CC[C@]43C)[C@H]12 [Control, ursolic acid]
Reply: 4.49
